- Organism: Homo sapiens
- Experiment: Selectivity for human NET over human SERT
The threshold is inclusive: Ratio Ki of exactly 100 counts as class 1; values below receive class 0.

Solved entries (count: 4):
Cc1ccccc1S[C@@H](c1ccccc1)[C@@H]1CNCCO1 : class 0
COc1ccccc1O[C@@H](c1ccccc1)[C@@H]1CNCCO1 : class 1
FCCc1ccccc1O[C@@H](c1ccccc1)[C@@H]1CNCCO1 : class 1
FCCCc1ccccc1O[C@@H](c1ccccc1)[C@@H]1CNCCO1 : class 1

From here, focus on the item given below.
INPUT: Could you please find out whether `Cc1ccccc1O[C@@H](c1ccccc1)[C@@H]1CNCCO1` has Ratio Ki that meets 100 or exceeds it?
OUTPUT: class 0
